This collection of values is drawn from the supplement of paper PMC9446081.

# Study system: GlmU (UniProt A7ZTU1)
# Sequence (A7ZTU1 whole entry, looked up): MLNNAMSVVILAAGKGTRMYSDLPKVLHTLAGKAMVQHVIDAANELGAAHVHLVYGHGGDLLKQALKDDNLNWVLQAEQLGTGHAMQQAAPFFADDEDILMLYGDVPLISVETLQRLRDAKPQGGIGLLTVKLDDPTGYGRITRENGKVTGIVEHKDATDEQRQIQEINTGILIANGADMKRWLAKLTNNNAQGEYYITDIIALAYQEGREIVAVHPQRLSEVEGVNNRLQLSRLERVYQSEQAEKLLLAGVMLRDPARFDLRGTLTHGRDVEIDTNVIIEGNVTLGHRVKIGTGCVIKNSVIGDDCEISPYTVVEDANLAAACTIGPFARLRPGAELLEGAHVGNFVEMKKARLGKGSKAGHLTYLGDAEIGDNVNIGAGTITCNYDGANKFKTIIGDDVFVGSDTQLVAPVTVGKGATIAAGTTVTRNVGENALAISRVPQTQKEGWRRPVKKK
# Experiment notes: relative enzymatic activity vs untreated control (fraction); higher = less inhibition
# Applied conditions: 100 µM; incubation time: 2 h at 37 C
The entries below are paired with their reported relative enzymatic activity.
Answer with a number only.

Known results for molecules:
Cc1cn(C2CC(N=[N+]=[N-])C(CO)O2)c(=O)[nH]c1=O (stereo not given) | 1
CC1CCc2c(N3CCC(O)CC3)c(F)cc3c(=O)c(C(=O)O)cn1c23 (stereo not given) | 0.978
CO[C@@]12[C@@H]3N[C@@H]3CN1C1=C(C(=O)C(N)=C(C)C1=O)[C@@H]2COC(N)=O | 0.979

Query block: Please look at Cc1nnc(SCC2=C(C(=O)O)N3C(=O)[C@@H](NC(=O)Cn4cnnn4)[C@H]3SC2)s1 and tell me its recorded relative enzymatic activity on GlmU (UniProt A7ZTU1).
Result block: 0.995

Query block: Quote GlmU (UniProt A7ZTU1) relative enzymatic activity for entry O=C(O)c1c(O)c2c([nH]c1=O)CCCC2 .
Result block: 0.975
